Entry source: paper PMC10704437

# tested_system: Aβ42 monomer (Homo sapiens, UniProt P05067)
# Construct: Small red spheres mark the Aβ42 peptide C-terminal residue, A42; purchased Sigma-Aldrich Corp
# Sequence (P05067 672-713 limits assumed): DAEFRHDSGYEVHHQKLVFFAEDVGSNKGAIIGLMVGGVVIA
# protocol_summary: Sterol binding to Aβ42, equilibrium DHE fluorescence titrations
# conditions: determined in DHE competition studies; DHE 10 nM, Aβ42 20 nM; K2PO4 50 mM, pH 7.4, 25 °C; read-out: Kd
value_type: pKd
pKd is defined as minus the log10 of a concentration measured in mol/L.

Consider CC(C)CCC[C@@H](C)[C@H]1CC[C@H]2[C@@H]3CC=C4C[C@@H](O)CC[C@]4(C)[C@H]3CC[C@]12C . Its measured pKd is 6.92
